Attribution: ChEMBL document CHEMBL5058577

The following compounds are shown together with reported Total Cell Count values.
test system: Fibroblast; assay: Multiplex assay against human fibroblast; type: toxicity, cell-based; details: 48 h, 1 µM, compound concentration 1 uM, replicate 2
Simply state the number, no unit and no words.

Reference set, count: 3
CN1CCN2c3ccccc3Cc3ccccc3C2C1.Cl (stereo unspecified) [MIANSERIN HYDROCHLORIDE] ... 116
C[C@@H]1CC(=O)Nc2cccc(-c3ccc4c(c3)c(-c3cnn(C)c3)nn4C)c2N1 ... 102
COc1cc2nc(N3CCN(C(=O)c4ccco4)CC3)nc(N)c2cc1OC.Cl [PRAZOSIN HYDROCHLORIDE] ... 197

Prompt: Please list Total Cell Count recorded for the compound CSc1nc(NC2CCCC2)c([N+](=O)[O-])c(NC2CCCC2)n1
Completion: 129

Prompt: Please list Total Cell Count recorded for the compound O=c1ccc2ccc(OCCCCN3CCN(c4cccc5sccc45)CC3)cc2[nH]1
Completion: 175

* * *

system: Fibroblast; test: Multiplex assay against human fibroblast; type: toxicity, cell-based; details: 12 h, 10 µM, compound concentration 10 uM, replicate 1
The following compounds are shown together with reported Population Mitochondria Different-Phenotype (%) values.
Could you give me the number in %? Just the number is fine.

CN1CCC(C(=O)c2cccc(NC(=O)c3c(F)cc(F)cc3F)n2)CC1 ... 7
COc1cc2nc(N3CCN(C(=O)c4ccco4)CC3)nc(N)c2cc1OC.Cl [PRAZOSIN HYDROCHLORIDE] ... 7

Prompt: Please list Population Mitochondria Different-Phenotype (%) recorded for the compound COc1ccc2c(c1OCc1ccccc1)C[C@@H](C(=O)O)N(C(=O)C(c1ccccc1)c1ccccc1)C2
Completion: 7

* * *

system: U2OS; test: Multiplex assay against U2OS; type: toxicity, cell-based; details: human, 48 h, 1 µM, compound concentration 1 uM, replicate 1
Consider the cut-off 70%. If the recorded Population Healthy Nuclei (%) is strictly smaller, the label is 1 (yes); if not, the label is 0 (no).

Nc1nc(-c2ccco2)c2cnn(Cc3ccccc3F)c2n1 ... 0 (no)
Cl.Cl.OCCOCCN1CCN(C(c2ccccc2)c2ccc(Cl)cc2)CC1 (stereo not given) [HYDROXYZINE HYDROCHLORIDE] ... 1 (yes)
CN1C[C@H](C(=O)N[C@]2(C)O[C@@]3(O)[C@@H]4CCCN4C(=O)[C@H](Cc4ccccc4)N3C2=O)C[C@@H]2c3cccc4[nH]cc(c34)C[C@H]21.CS(=O)(=O)O [DIHYDROERGOTAMINE MESYLATE] ... 0 (no)
CCn1c(-c2nc3cc(C(=O)N4CCCC(N)C4)ccc3n2C)cc2ccccc21.Cl (stereo not given) ... 0 (no)
O=C(NCCNCC(O)COc1ccc(O)cc1)N1CCOCC1.O=C(NCCNCC(O)COc1ccc(O)cc1)N1CCOCC1.O=C(O)/C=C/C(=O)O (stereo not given) [XAMOTEROL FUMARATE] ... 0 (no)

Prompt: hey, is Population Healthy Nuclei (%) for O=C(Nc1cc(-c2ccccc2)nn1-c1ccccc1F)c1ccc([N+](=O)[O-])cc1 lower than 70% or not?
Completion: 0 (no)

Prompt: hey, is Population Healthy Nuclei (%) for CC(C)(O)C(=O)N1CCN(c2ccc(C(F)(F)F)c(C3=C(c4c[nH]c5ccccc45)C(=O)NC3=O)c2)CC1 lower than 70% or not?
Completion: 1 (yes)

Prompt: hey, is Population Healthy Nuclei (%) for O=c1ccc2ccc(OCCCCN3CCN(c4cccc5sccc45)CC3)cc2[nH]1 [BREXPIPRAZOLE] lower than 70% or not?
Completion: 1 (yes)

Prompt: hey, is Population Healthy Nuclei (%) for COCCn1c(C)c(C)s/c1=N\C(=O)C1C(C)(C)C1(C)C lower than 70% or not?
Completion: 0 (no)

Prompt: hey, is Population Healthy Nuclei (%) for S=C(NCCCc1c[nH]cn1)NCCCN(Cc1ccc(Cl)c(Cl)c1)c1ccc(Br)cn1 lower than 70% or not?
Completion: 0 (no)
